Catalogue of Emax values
# target_under_test: Human GLP-1 Receptor (Homo sapiens, UniProt P43220)
# Construct: Full-length human glucagon-like peptide 1 receptor was stably expressed in CHO-K1 cells; expressed in transfected cells; host or cells: CHO-K1 (clone CHO-GLP1R-19)
# Sequence (P43220 24-463): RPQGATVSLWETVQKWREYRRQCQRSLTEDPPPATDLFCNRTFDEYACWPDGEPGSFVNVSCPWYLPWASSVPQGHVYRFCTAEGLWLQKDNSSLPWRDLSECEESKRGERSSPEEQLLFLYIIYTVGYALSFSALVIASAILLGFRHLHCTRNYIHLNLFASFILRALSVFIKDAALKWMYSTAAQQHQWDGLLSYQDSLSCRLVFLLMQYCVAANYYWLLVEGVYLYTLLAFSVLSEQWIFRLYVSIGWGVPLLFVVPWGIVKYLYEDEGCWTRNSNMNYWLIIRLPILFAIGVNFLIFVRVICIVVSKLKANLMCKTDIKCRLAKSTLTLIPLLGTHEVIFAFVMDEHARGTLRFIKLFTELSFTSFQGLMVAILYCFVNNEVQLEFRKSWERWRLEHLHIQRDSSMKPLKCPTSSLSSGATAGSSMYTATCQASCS
# measurement_description: Cyclic AMP determination in CHO cells expressing human GLP-1 receptor
# Type: cell-based
# cond: CHO, percent of maximal GLP-1 stimulated activity, human GLP-1 receptor
Where a SMILES comes first, the peptide text is derived from it. [ ]: non-standard residue; d: D form. The star is where a group is joined. ξ: configuration not given here. Ala(6-(2-MePh)pyridin-3-yl) = Cc1ccccc1-c1ccc(C[C@H](N)C(=O)O)cn1; Phe(4-(2-Et-4-HO-Ph)) = CCc1cc(O)ccc1-c1ccc(C[C@H](N)C(=O)O)cc1; ξαMePhe(2-F) = CC(N)(Cc1ccccc1F)C(=O)O; ξαMeP = CC1(C(=O)O)CCCN1; Moc = COC(=O)*
Report the value in % with no unit label.

Look over these answered cases.
CCc1cc(O)c(I)cc1-c1ccc(C[C@H](NC(=O)[C@H](CC(=O)O)NC(=O)[C@H](CO)NC(=O)[C@@H](NC(=O)C(C)(Cc2ccccc2F)NC(=O)[C@@H](NC(=O)CNC(=O)[C@H](CCC(=O)O)NC(=O)C2(C)CCCN2C(=O)[C@H](Cc2c[nH]cn2)NC(=O)OC)[C@@H](C)O)[C@@H](C)O)C(=O)N[C@@H](Cc2ccc(-c3ccccc3C)nc2)C(N)=O)cc1 (some centres unmarked)
97.2
CCc1cc(O)ccc1-c1ccc(C[C@H](NC(=O)[C@H](CC(=O)O)NC(=O)[C@H](Cc2c[nH]cn2)NC(=O)[C@@H](NC(=O)C(C)(Cc2ccccc2F)NC(=O)[C@@H](NC(=O)CNC(=O)[C@H](CCC(=O)O)NC(=O)C2(C)CCCN2C(=O)[C@H](Cc2c[nH]cn2)NC(=O)OC)[C@@H](C)O)[C@@H](C)O)C(=O)N[C@@H](Cc2ccc(-c3ccccc3C)nc2)C(N)=O)cc1 (some centres unmarked) [SEQ ID NO: 157] (Moc-H[ξαMeP]EGT[ξαMePhe(2-F)]THD[Phe(4-(2-Et-4-HO-Ph))][Ala(6-(2-MePh)pyridin-3-yl)]-NH2)
99.4
CCc1cc(O)ccc1-c1ccc(C[C@H](NC(=O)[C@H](CC(=O)O)NC(=O)[C@H](CO)NC(=O)[C@@H](NC(=O)C(C)(Cc2ccccc2F)NC(=O)[C@@H](NC(=O)CNC(=O)[C@H](CCC(=O)O)NC(=O)C2(C)CCCN2C(=O)[C@H](Cc2c[nH]cn2)NC(=O)OC)[C@@H](C)O)[C@@H](C)O)C(=O)N[C@@H](Cc2ccc(-c3ccccc3C)nc2)C(N)=O)cc1 (some centres unmarked) [SEQ ID NO: 158] (Moc-H[ξαMeP]EGT[ξαMePhe(2-F)]TSD[Phe(4-(2-Et-4-HO-Ph))][Ala(6-(2-MePh)pyridin-3-yl)]-NH2)
101
CCc1cc(O)ccc1-c1ccc(C[C@H](NC(=O)[C@H](CC(=O)O)NC(=O)[C@H](Cc2c[nH]cn2)NC(=O)[C@@H](NC(=O)[C@](C)(Cc2ccccc2F)NC(=O)[C@@H](NC(=O)CNC(=O)[C@H](CCC(=O)O)NC(=O)[C@]2(C)CCCN2C(=O)C(Cc2c[nH]cn2)OC)[C@@H](C)O)[C@@H](C)O)C(=O)N[C@@H](Cc2ccc(-c3ccccc3C)nc2)C(N)=O)cc1 (single isomer, unassigned)
105

Identify the measured Emax of CCc1cc(O)ccc1-c1ccc(C[C@H](NC(=O)[C@H](CC(=O)O)NC(=O)[C@H](CO)NC(=O)[C@@H](NC(=O)[C@](C)(Cc2ccccc2F)NC(=O)[C@@H](NC(=O)CNC(=O)[C@H](CCC(=O)O)NC(=O)[C@]2(C)CCCN2C(=O)C(Cc2c[nH]cn2)OC)[C@@H](C)O)[C@@H](C)O)C(=O)N[C@@H](Cc2ccc(-c3ccccc3C)nc2)C(N)=O)cc1 (single isomer, unassigned) for Human GLP-1 Receptor (Homo sapiens, UniProt P43220). 95.6
